Attribution: patent US20260327217A1

- assayed target: full-length tau (T40; htau40 isoform) / truncated tau (12-kDa fragment) in 3T6 fibroblast cells (Homo sapiens)
- Construct: fibroblast cells (3T6) express full-length tau; PHF-core tau fragment (12-kDa fragment); expressed in transfected cells; host or cells: 3T6 fibroblast cells
- Sequence (P10636 1-441 isoform P10636-8): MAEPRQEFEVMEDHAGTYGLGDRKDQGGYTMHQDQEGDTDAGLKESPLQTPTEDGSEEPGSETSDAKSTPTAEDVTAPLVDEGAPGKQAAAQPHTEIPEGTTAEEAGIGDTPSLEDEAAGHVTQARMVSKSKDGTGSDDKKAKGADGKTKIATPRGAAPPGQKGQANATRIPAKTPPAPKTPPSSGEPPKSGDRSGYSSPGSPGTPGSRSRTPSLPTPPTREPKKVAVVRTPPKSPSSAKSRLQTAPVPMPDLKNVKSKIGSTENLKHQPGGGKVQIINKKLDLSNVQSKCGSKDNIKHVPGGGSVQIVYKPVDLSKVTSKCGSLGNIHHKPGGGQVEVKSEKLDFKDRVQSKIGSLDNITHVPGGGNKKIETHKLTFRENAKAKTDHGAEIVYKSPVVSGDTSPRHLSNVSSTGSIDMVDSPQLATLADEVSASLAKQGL
- experimental details: cellular tau aggregation inhibition assay (truncated 12-kDa tau / full-length T40 band ratio on immunoblots)
- Format: cell-based
- test context: single experiment, FIG. 2; read-out: EC50 (50% inhibition of the lower 12-kDa band)
observable: EC50 (µM)
Kindly answer with a numeric value in µM, unit omitted.

Ask: Identify measured EC50 associated with CN(c1nc(C(=O)NCc2cc(-c3ccccc3)[nH]n2)cs1)S(C)(=O)=O
Result: 3.65
